The following binders are listed with their measured Classification values.
- testedOn: T1, GST-KIAA1719 PDZ domain 6 (Homo sapiens (Human)), Q9C0E4
- T1 chain: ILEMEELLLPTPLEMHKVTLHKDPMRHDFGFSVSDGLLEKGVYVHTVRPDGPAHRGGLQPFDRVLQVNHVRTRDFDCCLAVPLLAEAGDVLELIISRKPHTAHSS
- protocolNotes: G' assay; also: key of the grades not given here
property: Classification (A450 class)

[
  {
    "binder": "HHLVAQRDIRQFQLQHWLAI (modifications not checked) [noradrenaline transporter]",
    "property": "Classification",
    "scaleUnit": "A450 class",
    "valueMeasured": 2
  },
  {
    "binder": "RIAYSLLGLKDQVNTVGIPI (modifications not checked) [ephrin A2]",
    "property": "Classification",
    "scaleUnit": "A450 class",
    "valueMeasured": 1
  },
  {
    "binder": "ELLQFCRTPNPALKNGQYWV (modifications not checked) [CSPG4 (chondroitin sulfae proteoglycan 4, melanoma-associated)]",
    "property": "Classification",
    "scaleUnit": "A450 class",
    "valueMeasured": 5
  },
  {
    "binder": "LNETTETQRTLLNGDLQTSI (modifications not checked) [SSTR2 (somatostatin recepor 2)]",
    "property": "Classification",
    "scaleUnit": "A450 class",
    "valueMeasured": 1
  },
  {
    "binder": "ALVLIAFCIIRRRPSAYQAL (modifications not checked) [CD68]",
    "property": "Classification",
    "scaleUnit": "A450 class",
    "valueMeasured": 1
  },
  {
    "binder": "QGDPALQDAGDSSRKEYFI (modifications not checked) [Glycophorin C]",
    "property": "Classification",
    "scaleUnit": "A450 class",
    "valueMeasured": 1
  }
]

Source of measurements: patent US20050282743A1
